Molecular target: HLA-DR DRB5*01:01 (Homo sapiens, UniProt P01903+Q30154)
Test: In vitro HLA binding assay with purified HLA-DR molecules
Conditions: purified HLA-DR molecule; high affinity binding = IC50 <1,000 nM
Ends that are not written are not given here.
Measured pIC50, listed per entry for reference.
Please report pIC50 as the negative decimal logarithm of the molar concentration, giving only the number.

Need pIC50, item VEVNKRKSKYKLATS [EXP1-P14] 7.05

Need pIC50, item NANPDADSESNGEPN [EXP1-P25] 4.51

Need pIC50, item GSGVSSKKKNKKGSG [EXP1-P07] 5.34

Need pIC50, item SVFFLALFFIIFNKE [EXP1-P02] 5.16

Need pIC50, item KEEELVEVNKRKSKY [EXP1-P13] 5.95

Need pIC50, item GVGLVLYNTEKGRHP [EXP1-P20] 6.27

Need pIC50, item RKSKYKLATSVLAGLL [EXP1-P15] 9.00

Need pIC50, item LGVVSTVLLGGVGLV [EXP1-P18] 5.61

Need pIC50, item VLAGLLGVVSTVLLGGV [EXP1-P17] 6.62

Need pIC50, item KLATSVLAGLLGVVS [EXP1-P16] 6.61
